- Tested on: UO-31 renal
- PROCEDURE SUMMARY: NCI-60 one-dose screen, 48 h (100 = growth as untreated, 0 = no growth, -100 = all killed)
- PROTOCOL CONDITIONS: 10 µM unless noted
Compounds without any hit were thinned out: in the full panel of roughly 83,000, 20% have a hit. The source made the active and inactive calls. Rule for the calls: active = growth percent below 10; inactive = the rest.
For each of the molecules below, state its growth.

Request - read-out growth | tested on UO-31 renal | molecule `Cc1nn(-c2ccccc2)c(Oc2ccc(Cl)cc2)c1/C=N\N=c1/sc2ccccc2n1C` 62.1% (inactive)

Request - read-out growth | tested on UO-31 renal | molecule `COc1ccc(-c2nc(SCC(=O)Nc3nc(-c4ccccc4)cs3)[nH]c(=O)c2C#N)cc1` 59% (inactive)

Request - read-out growth | tested on UO-31 renal | molecule `Cc1ccc(Cl)cc1NC(=O)c1cc2ccccc2cc1O` -8.04% (active)

Request - read-out growth | tested on UO-31 renal | molecule `COc1ccccc1CNCCCN1C(=O)c2ccc3c4c(ccc(c24)C1=O)C(=O)N(CCCNCCCCN)C3=O` 11.2% (inactive)

Request - read-out growth | tested on UO-31 renal | molecule `Cc1cc(Cl)nc(NCc2cc(Nc3ccnc4cc(Cl)ccc34)ccc2F)n1` 44% (inactive)

Request - read-out growth | tested on UO-31 renal | molecule `Cc1cc(=O)[nH]c(N=Nc2c(O)[nH]c3ccccc23)n1` 84.9% (inactive)

Request - read-out growth | tested on UO-31 renal | molecule `Cc1cc(C)c(-c2c(C)cc(C)cc2CBr)c(CBr)c1` 75.9% (inactive)

Request - read-out growth | tested on UO-31 renal | molecule O=C(CC(SCc1ccccc1)c1ccccc1)c1ccccc1 (stereo not given) 84.7% (inactive)

Request - read-out growth | tested on UO-31 renal | molecule `O=c1[nH]ccc2nc(N3CCC(O)CC3)nc(Nc3ccc(N4CCOCC4)cc3)c12` 38.2% (inactive)

Request - read-out growth | tested on UO-31 renal | molecule `COc1cccc(-c2nn(-c3ccccc3)cc2-c2ccnc(NCCNC(=O)Nc3ccc(Cl)c(Cl)c3)c2)c1` -13.1% (active)

###

For each of the molecules below, state its growth.
- System: EKVX NSCLC
- PROCEDURE SUMMARY: NCI-60 one-dose screen, 48 h (100 = growth as untreated, 0 = no growth, -100 = all killed)
- PROTOCOL CONDITIONS: 10 µM unless noted
- Description: Growth inhibition of the EKVX human Non-Small Cell Lung tumor cell line is measured as a screen for anti-cancer activity. Cells are grown in 96 well plates and exposed to the test compound for 48 hours. Compounds are tested at a single concentration, which is 10^-5 M for most compounds. The reported endpoint is percent growth (GI% or GIPRCNT), where numbers from 0 - 100% represent growth inhibition, and numbers from -100% - 0 represent cell death. […]
This is part of a sample that, as a whole, favours compounds with a hit. Of some 83,000 tested, about 20% had one in any assay.
Please reply with the bare figure in % and do not write the unit itself.

Look up growth: `COc1ccc2c(c1)[nH]c(=O)c1c3cccnc3cn21` 63.2

Look up growth: CC1CC2Oc3ccc(Cl)cc3C(=O)N2O1 (stereo unspecified) 109

Look up growth: `COc1ccc(N=Nc2ccc(O)c(=O)cc2)cc1` 4.69

Look up growth: CC(C)(C)C(CCc1ccc(Cl)cc1)N1CCN(C2CCCCC2)CC1 (stereo unspecified) 70.1

Look up growth: `O=C(Nc1ccccc1)Nc1cccc(Oc2nnc(Cl)c3ccccc23)c1` 30

Look up growth: `O=C(Nc1cccc(Cl)c1)c1cc(N=Nc2ccc([N+](=O)[O-])cc2Cl)ccc1O` 70.2

These data points were gathered from PubChem BioAssay (NCI).
